# target_under_test: His-tagged recombinant human TrkA (Homo sapiens (Human))
# Sequence (P04629 440-796): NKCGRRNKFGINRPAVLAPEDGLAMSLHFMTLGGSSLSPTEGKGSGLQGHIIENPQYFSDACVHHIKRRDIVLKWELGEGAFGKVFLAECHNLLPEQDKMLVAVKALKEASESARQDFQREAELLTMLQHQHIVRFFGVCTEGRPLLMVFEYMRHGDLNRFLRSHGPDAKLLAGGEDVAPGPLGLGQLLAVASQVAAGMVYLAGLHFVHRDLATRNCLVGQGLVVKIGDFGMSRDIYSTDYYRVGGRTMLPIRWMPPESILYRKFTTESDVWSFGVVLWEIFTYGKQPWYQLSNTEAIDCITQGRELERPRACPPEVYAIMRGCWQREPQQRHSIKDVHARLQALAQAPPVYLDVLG
# method_notes: TrkA LanthaScreen Eu Kinase Binding Assay
# recorded_conditions: averaged IC50; TR-FRET binding, 60 min, 22° C.; read-out: TrkA Enzyme IC50
measured_parameter: IC50

Challenge: Answer with reported IC50 of COCCOc1nn(-c2ccccc2)c(NC(=O)N[C@@H]2c3ccccc3C(C)(C)C[C@H]2O)c1C
Response given: < 0.1 µM

Challenge: Answer with reported IC50 of COc1nn(-c2ccccc2)c(NC(=O)N[C@@H]2c3ccccc3C(C)(C)[C@@H](OC)[C@H]2O)c1C
Response given: < 0.1 µM

Challenge: Answer with reported IC50 of Cc1c(-c2cnn(C)c2)nn(-c2ccccc2)c1NC(=O)NC1CC(C2CC2)Oc2ccc(Br)cc21 (stereo not shown)
Response given: < 0.1 µM

Challenge: Answer with reported IC50 of Cc1c(-c2cnn(C)c2)nn(-c2ccccc2)c1NC(=O)NC1CC(C)Oc2ccc(F)cc21 (stereo not shown)
Response given: 0.1 to 1 µM

Next:
Challenge: Answer with reported IC50 of COCc1ccc2c(c1)C(NC(=O)Nc1c(C)c(=O)[nH]n1-c1ccccc1)CN(CC(F)(F)F)C2C (stereo not shown)
Response given: < 0.1 µM

Challenge: Answer with reported IC50 of Cc1c(OC[C@@H]2CN(C)CCO2)nn(-c2ccccc2)c1NC(=O)N[C@@H]1c2ccccc2C(C)(C)C[C@H]1O
Response given: < 0.1 µM

Challenge: Answer with reported IC50 of CCN1Cc2ccccc2C(NC(=O)Nc2c3c(nn2-c2ccccc2)CCC3)C1 (stereo not shown)
Response given: 0.1 to 1 µM

----------
# target_under_test: STK33 (Homo sapiens (Human), UniProt Q9BYT3)
# Sequence (Q9BYT3 whole entry): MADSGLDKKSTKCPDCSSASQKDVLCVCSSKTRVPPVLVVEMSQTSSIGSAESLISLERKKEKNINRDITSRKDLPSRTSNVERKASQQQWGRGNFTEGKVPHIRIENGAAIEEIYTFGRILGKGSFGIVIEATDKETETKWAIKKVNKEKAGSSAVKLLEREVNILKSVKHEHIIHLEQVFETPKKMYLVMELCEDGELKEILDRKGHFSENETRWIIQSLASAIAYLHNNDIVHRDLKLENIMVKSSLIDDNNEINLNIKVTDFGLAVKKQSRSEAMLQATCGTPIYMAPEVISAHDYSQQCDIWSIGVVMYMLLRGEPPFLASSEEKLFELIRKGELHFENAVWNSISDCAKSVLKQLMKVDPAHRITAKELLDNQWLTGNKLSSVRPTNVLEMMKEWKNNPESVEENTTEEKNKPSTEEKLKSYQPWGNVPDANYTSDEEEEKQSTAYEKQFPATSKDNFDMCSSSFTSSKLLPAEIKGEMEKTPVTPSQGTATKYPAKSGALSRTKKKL
# method_notes: KinaseProfiler off-target kinase profiling
# Assay type: biochemical
# recorded_conditions: 10 μM, ATP near Km
measured_parameter: Avg. POC (POC)

Challenge: Given Cc1c(-c2cnn(C)c2)nn(-c2ccccc2)c1NC(=O)N[C@H]1CCCc2ccccc21 , report its Avg. POC on STK33 (Homo sapiens (Human), UniProt Q9BYT3).
Response given: 110.5

Challenge: Given Cc1c(-c2cnn(C)c2)nn(-c2ccccc2)c1NC(=O)NC1CCOc2cc(F)ccc21 (stereo not shown) , report its Avg. POC on STK33 (Homo sapiens (Human), UniProt Q9BYT3).
Response given: 106.5

Challenge: Given COCc1ccc2c(c1)C(NC(=O)Nc1c(C)c(-c3cnn(C)c3)nn1-c1ccccc1)COC2 (stereo not shown) , report its Avg. POC on STK33 (Homo sapiens (Human), UniProt Q9BYT3).
Response given: 115

Challenge: Given Cc1c(-c2ccc(=O)n(C)c2)nn(-c2ccccc2)c1NC(=O)NC1CN(CC(F)(F)F)Cc2ccccc21 (stereo not shown) , report its Avg. POC on STK33 (Homo sapiens (Human), UniProt Q9BYT3).
Response given: 111

----------
# target_under_test: Rsk1 (Homo sapiens (Human))
# Sequence (Q15418 whole entry): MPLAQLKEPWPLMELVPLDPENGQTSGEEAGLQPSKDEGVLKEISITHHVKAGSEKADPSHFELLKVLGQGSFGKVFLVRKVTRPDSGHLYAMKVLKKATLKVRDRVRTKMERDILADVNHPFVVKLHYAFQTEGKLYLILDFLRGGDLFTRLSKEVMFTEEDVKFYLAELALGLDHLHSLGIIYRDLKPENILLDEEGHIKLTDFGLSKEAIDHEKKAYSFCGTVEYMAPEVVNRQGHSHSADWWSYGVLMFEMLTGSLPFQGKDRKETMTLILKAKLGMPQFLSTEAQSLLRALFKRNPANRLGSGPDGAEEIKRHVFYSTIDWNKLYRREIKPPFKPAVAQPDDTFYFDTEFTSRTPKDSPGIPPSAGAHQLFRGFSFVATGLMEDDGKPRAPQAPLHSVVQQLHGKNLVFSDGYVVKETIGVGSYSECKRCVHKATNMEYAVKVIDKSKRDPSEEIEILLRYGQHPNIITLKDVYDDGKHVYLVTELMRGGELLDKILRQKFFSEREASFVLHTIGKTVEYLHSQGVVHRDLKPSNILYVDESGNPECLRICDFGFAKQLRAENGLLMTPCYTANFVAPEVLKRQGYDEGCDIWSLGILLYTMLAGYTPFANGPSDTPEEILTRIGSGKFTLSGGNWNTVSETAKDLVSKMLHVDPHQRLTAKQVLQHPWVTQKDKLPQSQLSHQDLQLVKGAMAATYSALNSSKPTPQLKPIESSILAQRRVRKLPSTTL
# method_notes: KinaseProfiler off-target kinase profiling
# Format: biochemical
# recorded_conditions: 10 μM, ATP near Km
measured_parameter: Avg. POC (POC)

Challenge: Given Cc1c(-c2cnn(C)c2)nn(-c2ccccc2)c1NC(=O)NC1CCOc2cc(F)ccc21 (stereo not shown) , report its Avg. POC on Rsk1 (Homo sapiens (Human)).
Response given: 107.5

Challenge: Given Cc1c(-c2cnn(C)c2)nn(-c2ccccc2)c1NC(=O)N[C@H]1CCCc2ccccc21 , report its Avg. POC on Rsk1 (Homo sapiens (Human)).
Response given: 117

Challenge: Given COCc1ccc2c(c1)C(NC(=O)Nc1c(C)c(-c3cnn(C)c3)nn1-c1ccccc1)COC2 (stereo not shown) , report its Avg. POC on Rsk1 (Homo sapiens (Human)).
Response given: 111.5

Challenge: Given Cc1c(-c2ccc(=O)n(C)c2)nn(-c2ccccc2)c1NC(=O)NC1CN(CC(F)(F)F)Cc2ccccc21 (stereo not shown) , report its Avg. POC on Rsk1 (Homo sapiens (Human)).
Response given: 121
